Measured Target: Ephrin type-B receptor 4 (Homo sapiens)
Protocol Summary: EphB4-ephrin-B2 interaction antagonists, primary screen, biochemical, TNYL-RAW peptide probe, fluorescence polarization (AID 720);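 also: 0% = DMSO wells and 100% = excess unlabeled TNYL-RAW peptide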
Assay Setup: EphB4 LBD / TNYL-RAW-Alexa532 peptide, at 7 µM, stronger effect = higher value
Hit rate of the full screen: of about 97,000 compounds, about 140 (0.14%) were called active. Shown is part of a subset that was picked to be rich in actives.
Measure: inhibition (%)
Give the value, in units of %, as a plain number.

CCc1cccc2c(C#N)cn(CC(=O)N3CCOCC3)c12: 21.5

// query What does the data say about its inhibition? Entry: CCC(=O)CC(c1ccc([N+](=O)[O-])cc1)c1c(O)c2ccccc2oc1=O (centres undefined)
// result 0.56

// query What does the data say about its inhibition? Entry: CC(=O)c1ccc(OC(NC(=O)Cc2ccccc2)C(Cl)(Cl)Cl)cc1 (centres undefined)
// result 0.16

// query What does the data say about its inhibition? Entry: OC(Cn1c2ccccc2c2ccccc21)C[n+]1ccccc1 (centres undefined)
// result -2.91
